Test: differential killing of epithelial or mesenchymal cells, primary screen, imaging, PC-3E GFP, TEM4-18 mCherry, co-culture (AID 1345086);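 also: cells exposed to compound for 72 h before imaging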;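 as to red/green cell ratio (normalised): normalised mesenchymal count divided by normalised epithelial count so high means epithelial killing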
Conditions: imaging cell counts, at 1 µM, actives lie on both sides, counts scaled to control wells, 1 = unselective
experimental-endpoint: red/green cell ratio (normalised)
I'd appreciate a reply containing only the number, no unit.

>>> print(df.to_string())
                                   compound  result_number
0                   O=C(NC1CCCCC1)NC1CCCCC1           0.92
1  C[C@H]1C[C@H]2O[C@@H]2/C=C\C=C\C(=O)Cc2c(Cl)c(O)cc(O)c2C(=O)O1           0.97
2  CC1(C)C(=O)[C@@H]2C[C@@]3(O)C4=CC(=O)O[C@@H](c5ccoc5)[C@]4(C)CCC3C(C)(C2=O)[C@H]1CC(=O)O (some centres undefined)              1
3  COc1ccc(-c2cc(=O)c3c(OC)c(OC)c(OC)cc3o2)cc1OC           1.21
4  CC(=O)NC1[C@@H](O)C2OC(c3ccccc3)OCC2O[C@H]1Sc1ccccc1 (some centres undefined)           1.03
5  O=c1ccn([C@@H]2O[C@H](CO)[C@@H](O)[C@H]2O)c(=O)[nH]1            0.9
6  CCN1CCN(C(=O)NC(C(=O)N[C@@H]2C(=O)N3[C@@H]2SC(C)(C)[C@@H]3C(=O)O)c2ccccc2)C(=O)C1=O (some centres undefined)           1.25
7  CC(=O)Oc1ccc2c(c1)CCC1C2CC[C@]2(C)C(=O)CCC12 (some centres undefined)           0.81
8  C=CC(C)(C)c1[nH]c2ccccc2c1C1=C(OC)C(=O)C(c2c(C(C)(C)C=C)[nH]c3ccccc23)=C(OC)C1=O           0.88
9  CC(NCCc1ccc(O)cc1)C(O)c1ccc(O)cc1 (centres undefined)           1.16

# input Fill in: red/green cell ratio (normalised) of CC(=O)OCC(=O)[C@H]1CCC2C3CCC4=CC(=O)CC[C@]4(C)C3CC[C@@]21C (some centres undefined) is ___
# output 1.09

# input Fill in: red/green cell ratio (normalised) of CO/N=C(\C(=O)NC1C(=O)N2C(C(=O)OCOC(=O)C(C)(C)C)=C(/C=C\c3scnc3C)CSC12)c1csc(N)n1 (centres undefined) is ___
# output 0.92

# input Fill in: red/green cell ratio (normalised) of CC1=CC2C(C(C)C)CCC(C)(O)C2CC1 (centres undefined) is ___
# output 1.01

# input Fill in: red/green cell ratio (normalised) of CC(CC(=O)N1C(=O)OC[C@@H]1Cc1ccccc1)N1C(=S)OC[C@H]1c1ccccc1 (some centres undefined) is ___
# output 0.87

# input Fill in: red/green cell ratio (normalised) of CCC(=O)OCC(=O)[C@@]1(OC(=O)CC)[C@@H](C)CC2C3CCC4=CC(=O)C=C[C@]4(C)C3(F)[C@@H](O)C[C@@]21C (some centres undefined) is ___
# output 1.32

* * *

# reported log fold change Tl+ flux; entries follow
Tested on: R275C
Assay: modulators of BK channel variants, profiling panel, selectivity assay, cell-based, U2OS BacMam, thallium flux, beta subunits (AID 1259406);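 also: initial slope of Thallos dye fluorescence rise after thallium is added; log ratio against the mean of 0.3% DMSO vehicle wells on the same plate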
Conditions: at 30 µM
I'd appreciate a reply containing only the number, no unit.

molecule	experimental-endpoint	result-number
Cc1cccc(CCN2CCC(C(=O)c3ccc(NS(C)(=O)=O)cc3)CC2)n1	log fold change Tl+ flux	-0.00568
CC(=O)Oc1ccc(OC(C)=O)c2cc3c(OC(C)=O)ccc(OC(C)=O)c3cc12	log fold change Tl+ flux	-0.0106
CO[C@H]1C=CO[C@@]2(C)Oc3c(C)c(O)c4c(O)c(c5c(nc6cc(C)ccn65)c4c3C2=O)NC(=O)C(C)=CC=C[C@H](C)[C@H](O)[C@@H](C)[C@@H](O)[C@@H](C)[C@H](OC(C)=O)[C@@H]1C	log fold change Tl+ flux	-0.242
FC(F)(F)COc1ccc(-c2nnc(SCc3ccccc3C(F)(F)F)o2)cn1	log fold change Tl+ flux	-0.0108
CN(C)CCOc1ccc(/C(=C(/CCCl)c2ccccc2)c2ccccc2)cc1	log fold change Tl+ flux	-0.0555

Consider now this further molecule.
# input Fill in: log fold change Tl+ flux of COc1c(N2C[C@@H]3CCCN[C@@H]3C2)c(F)cc2c(=O)c(C(=O)O)cn(C3CC3)c12 is ___
# output -0.02

* * *

Test: ICB984 medulloblastoma cell growth inhibition, synergistic combos for chromothripsis tumors, cisplatin or BGB combos (AID 1671451);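 also: cells exposed for 96 hours before readout; 0% = vehicle DMSO and 100% = killing by high DMSO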
Conditions: ICB984 medulloblastoma cells, drug combinations, at 0.5 µM, stronger effect = higher value
experimental-endpoint: inhibition (%)
Provide only the numeric value, understood in %.

compound	inhibition (%)
O=C(Nc1ccccc1)c1ccccc1O	-10.1
CO[C@H]1/C=C/O[C@@]2(C)Oc3c(C)c(O)c4c(O)c(c(C=NN5CCN(C)CC5)c(O)c4c3C2=O)NC(=O)/C(C)=C\C=C\[C@H](C)[C@H](O)[C@@H](C)[C@@H](O)[C@@H](C)[C@H](OC(C)=O)[C@@H]1C	-10.8
O=c1[nH]c(-c2ccc(C(F)(F)F)cc2)nc2c1CSCC2	-27.1
O=c1ncccn1[C@@H]1O[C@H](CO)[C@@H](O)[C@H]1O	-16.8
NC(=O)c1ncn(C2OC(CO)C(O)C2O)n1 (stereo unspecified)	-10.2

Consider now this further compound.
# input Fill in: inhibition of CCc1c2c(nc3ccc(O)cc13)-c1cc3c(c(=O)n1C2)COC(=O)[C@]3(O)CC is ___
# output -17.9

* * *

Experiment: antimalarial activity against Dd2 strain (AID 2302);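 also: 0% = DMSO untreated growth and 100% = chloroquine plus artemisinin killed control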
Details: P. falciparum Dd2 in RBCs, LDH growth readout, 72 h; at 2 µM; stronger effect = higher value
The source made the active and inactive calls.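 The calls were made as follows: active = growth inhibition above 50% at the single 2 µM test dose, taken to imply half-maximal potency below 2 µM; inactive = the rest.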
experimental-endpoint: growth inhibition

                                   compound  experimental_endpoint        result
0  CCNC(=O)Nc1ccc(N(C)c2ccnc(Nc3ccc(CS(C)(=O)=O)cc3)n2)cc1      growth inhibition  99% (active)
1  O=C(c1ccccc1)N(Cc1ccccc1-c1ccc(CNCCc2ccccc2)cc1)C1CCN(Cc2ccccc2)CC1      growth inhibition  69% (active)

# input Fill in: growth inhibition of Cc1cc2nc(-c3ccc(OCC(=O)NCc4cccc(C(F)(F)F)c4)cc3)[nH]c2cc1C is ___
# output 1% (inactive)

# input Fill in: growth inhibition of Cc1nc(-c2cccc(Nc3nccc(NCC(O)c4ccccc4C)n3)c2)cs1 (stereo not given) is ___
# output 14% (inactive)

# input Fill in: growth inhibition of COc1cc2nccc(Nc3ccc(Oc4ccccc4)cc3)c2cc1OC is ___
# output 99% (active)

# input Fill in: growth inhibition of O=c1cc(NCCCNCc2cccc(OC(F)(F)F)c2)[nH]c2ccccc12 is ___
# output 72% (active)

# input Fill in: growth inhibition of Nc1nc(N)c(-c2ccccc2)c(=O)[nH]1 is ___
# output -5% (inactive)

# input Fill in: growth inhibition of Fc1ccc2c(NN=CC=Cc3ccccc3)ccnc2c1 is ___
# output 98% (active)

* * *

# reported normalised cell number; entries follow
Experiment: differential killing of epithelial or mesenchymal cells, primary screen, imaging, PC-3E GFP, TEM4-18 mCherry, co-culture (AID 1345086);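 also: cells exposed to compound for 72 h before imaging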
Conditions: imaging cell counts, measured here: mesenchymal TEM4-18 mCherry cell survival, at 1 µM
I'd appreciate a reply containing only the number, no unit.

molecule	result-number
CO/N=C(/C(=O)NC1C(=O)N2C(C(=O)O)=C(CSc3nnnn3C)CSC12)c1csc(N)n1 (stereo not given)	1.06
COC(=O)C[C@H]1C2(C)CC34OC5(C)O[C@]6(C7/C(=C(/OC)C(C)C)C(=O)O[C@@H](c8ccoc8)[C@]7(C)C(OC(=O)C(C)C)[C@@H](OC)[C@]6(O5)C13C)[C@H](OC)[C@@]4(OC)C2OC(C)=O (stereo not given in full)	1
COc1ccc2oc3ccccc3c(=O)c2c1	1.14
CC1CC(OC(=O)C(O)c2ccccc2)CC(C)(C)C1 (stereo not given)	1.03
CC(C)CCCC(C)C1CCC2C3CC(=O)[C@H]4C[C@@H](O)CC[C@]4(C)C3CC[C@]12C (stereo not given in full)	1.05

# input Fill in: normalised cell number of FC(F)(Cl)C(F)(F)Cl is ___
# output 0.93

# input Fill in: normalised cell number of CC(=O)OCC(=O)[C@@]1(O)[C@H](C)CC2C3CCC4=CC(=O)C=C[C@]4(C)[C@@]3(F)[C@@H](O)C[C@@]21C (stereo not given in full) is ___
# output 1.74

# input Fill in: normalised cell number of C[C@H]1[C@H]2CCC3C4CC=C5C[C@@H](N(C)C)CC[C@]5(C)C4CC[C@@]32CN1C (stereo not given in full) is ___
# output 0.83

# input Fill in: normalised cell number of O=C1O[C@@H](CO)[C@H](O)[C@@H](O)[C@@H]1O is ___
# output 1.02

# input Fill in: normalised cell number of N[C@H]1CONC1=O is ___
# output 1.03

All values here come from PubChem BioAssay.
